# credit: PubChem BioAssay (NCI)

Tested on: 786-0 renal
Assay: NCI tumour cell line growth inhibition, 48 h
Classify by measured TGI: label 1 if it is equal to or exceeds 10 µM, label 0 if it is smaller.

| compound | targetUnderTest | className |
| --- | --- | --- |
| CC(C)Cn1cnc2c(Cl)nc3ccccc3c21 | 786-0 renal | label 1 |
| O=C(c1ccccc1)c1nc2ccc(C(F)(F)F)cc2nc1N1CCN(c2ccccc2)CC1 | 786-0 renal | label 1 |
| NC(N)=NS(=O)(=O)c1ccc(NC(=O)c2cccc3c(N)c4ccccc4nc23)cc1 | 786-0 renal | label 1 |

Does O=S(=O)(c1cc(Cl)ccc1Cl)N1CCN(c2cccc(Cl)c2)CC1 have a reported TGI of at least 10 µM?
label 1

Does NCCSC(c1ccccc1)(c1ccccc1)c1ccccc1 have a reported TGI of at least 10 µM?
label 1

Does O=C1C(=O)N(c2ccc(Cl)cc2)C(=O)C(=Nc2cccc3c(=O)[nH][nH]c(=O)c23)C1c1nc2ccccc2o1 (stereo unspecified) have a reported TGI of at least 10 µM?
label 1

Does Cc1ccc(C(=O)NCCN(C)C)c2nc3ccccc3cc12 have a reported TGI of at least 10 µM?
label 1

Does NC(N)=Nc1ccc(/C=C2\C=Cc3ccccc32)cc1 have a reported TGI of at least 10 µM?
label 1

Does CCN(CC)Cc1cc(Nc2ccnc3ccc4nn(C)nc4c23)ccc1O have a reported TGI of at least 10 µM?
label 1

Does COc1cc(CNc2c3ccccc3nc3ccccc23)cc(OC)c1OC have a reported TGI of at least 10 µM?
label 1

Does COc1ccc(-c2[nH]nc(N)c2-c2cc(OC)c(OC)c(OC)c2)cc1 have a reported TGI of at least 10 µM?
label 1

Does N#CC1=C(N)Oc2c(sc3c(Br)cccc23)C1c1ccc(Cl)cc1 (stereo unspecified) have a reported TGI of at least 10 µM?
label 0

Does CCN(CCO)CCNc1ccc(C)c2sc3ccccc3c(=O)c12 have a reported TGI of at least 10 µM?
label 0

Does COc1cc2nc3cc([N+](=O)[O-])ccc3c(NCCNCC(C)O)c2cc1OC (stereo unspecified) have a reported TGI of at least 10 µM?
label 0

Does CN1C(=O)C2(c3ccccc31)C1CC3C(CO1)C1C2C3(CO)CN1C#N (stereo unspecified) have a reported TGI of at least 10 µM?
label 1

Does O=C1c2c(Cl)c(Cl)c(Cl)c(Cl)c2C(=O)C2(Cl)CC=CCC12Cl (stereo unspecified) have a reported TGI of at least 10 µM?
label 0

Does COC(=O)C1[C@H](c2ccc3c(c2)OCO3)OC(=O)[C@]1(C(=O)OC)C(=O)c1ccc(OC)c(OC)c1 (stereo partly specified) have a reported TGI of at least 10 µM?
label 1

Does COC(=O)/N=[N+](\[O-])C(c1ccccc1)c1ccccc1 have a reported TGI of at least 10 µM?
label 1

Does CNC(=O)c1cccc(C#Cc2cncnc2Nc2ccc(OCc3cccc(F)c3)c(Cl)c2)c1 have a reported TGI of at least 10 µM?
label 1

Does O=C(O)c1ccc([C@@H]2C(=O)N(O)[C@@H]3C=CC[C@@H]32)cc1 have a reported TGI of at least 10 µM?
label 1

Does O=C1NC(=NCCc2ccccn2)S/C1=C\c1ccc2ncccc2c1 have a reported TGI of at least 10 µM?
label 1
